Overview of reported CC50 across a group of compounds:
# measurement-notes: Cytotoxicity against monkey kidney Vero cells by resazurin assay
# Type: cell-based
# experimental-context: chlorocebus sabaeus

| compound | CC50 |
| --- | --- |
| OC(CNc1ccc(F)c(F)c1)(c1ccc(Cl)cc1)c1nnn(Cc2ccccc2)c1-c1ccc(Cl)cc1 (centres undefined) | > 500 µM |
| OC(CNc1cccc2ccccc12)(c1ccc(Cl)cc1)c1nnn(Cc2ccccc2)c1-c1ccc(Cl)cc1 (centres undefined) | 290 µM |
| OC(CNc1ccc(F)cc1)(c1ccc(Cl)cc1)c1nnn(Cc2ccccc2)c1-c1ccc(Br)cc1 (centres undefined) | > 500 µM |
| OC(CNc1ccc(Br)cc1)(c1ccc(Cl)cc1)c1nnn(Cc2ccccc2)c1-c1ccccc1 (centres undefined) | > 500 µM |
| OC(CNc1ccccc1Br)(c1ccc(Cl)cc1)c1nnn(Cc2ccccc2)c1-c1ccc(Br)cc1 (centres undefined) | > 500 µM |
| CCN(CC)CCCC(C)Nc1ccnc2cc(Cl)ccc12 (centres undefined) [CHLOROQUINE PHOSPHATE] | > 500 µM |
| OC(CNc1ccc(Br)cc1)(c1ccc(Cl)cc1)c1nnn(Cc2ccc(Br)cc2)c1-c1ccc(Cl)cc1 (centres undefined) | > 500 µM |
| OC(CNc1ccc(Br)cc1)(c1ccc(Br)cc1)c1nnn(Cc2ccccc2)c1-c1ccccc1 (centres undefined) | > 500 µM |
| CC(C)c1ccc(-c2c(C(O)(CNc3ccc(Br)cc3)c3ccc(Cl)cc3)nnn2Cc2ccccc2)cc1 (centres undefined) | 155 µM |
